# assayed_target: human histamine H3 receptor (Homo sapiens)
measured_parameter: Kd (nM)
Give the quantity in nM, number only.

Query the reported Kd for human histamine H3 receptor (Homo sapiens); item: c1cc(CN2CCCCC2)cc(OCCCNc2nc3ccccc3s2)c1
282

----------
# assayed_target: UniProt Q9Y5N1
# measurement_protocol: CRE-SPAP gene transcription in forskolin-stimulated CHO-H3-SPAP cells
# settings: pKD values, CRE-SPAP; agonist S-α-methylhistamine
measured_parameter: pKd
API: returns pKd as number; meaning -log10 of concentration in mol/L.

Write down the reported pKd of C[C@H]1[C@H]2CC[C@H]3[C@@H]4CC=C5C[C@@H](N(C)C)CC[C@]5(C)[C@H]4CC[C@]23CN1C [conessine] , test system: UniProt Q9Y5N1.
8.28

----------
# assayed_target: human histamine H3 receptor (Homo sapiens)
# measurement_protocol: CRE-SPAP gene transcription in forskolin-stimulated CHO-H3-SPAP cells
# settings: pIC50 Site 1, CRE-SPAP, first component of two-component response, forskolin-stimulated CHO-H3-SPAP cells
measured_parameter: pIC50
Kindly note that pIC50 refers to -log10 of the concentration in mol/L and answer with the value alone.

# get_value(readout='pIC50', item= NCCCCCc1cnc[nH]1 [impentamine] )
7.59

----------
# Kd values compiled below
# assayed_target: human histamine H3 receptor (Homo sapiens)
# measurement_protocol: CRE-SPAP gene transcription in forskolin-stimulated CHO-H3-SPAP cells
# settings: Log KD values, CRE-SPAP; agonist impentamine (first component of the response)
A number alone suffices; assume nM.

# annotated cases, reported Kd shown
compound | assayed_target | Kd [nM]
CC(C1=C(CCN(C)C)Cc2ccccc21)c1ccccn1 (stereo not drawn) | human histamine H3 receptor (Homo sapiens) | 2570
Cc1ccc(/C(=C\CN2CCCC2)c2ccccn2)cc1 | human histamine H3 receptor (Homo sapiens) | 2240

Now take the following compound into account.
// returns reported Kd for input CN(C)CCC(c1ccc(Cl)cc1)c1ccccn1 (stereo not drawn)
6170

----------
In this section we review reported Kd values for a set of molecules.
# assayed_target: human histamine H3 receptor (Homo sapiens, UniProt Q9Y5N1)
# Sequence (Q9Y5N1 whole entry): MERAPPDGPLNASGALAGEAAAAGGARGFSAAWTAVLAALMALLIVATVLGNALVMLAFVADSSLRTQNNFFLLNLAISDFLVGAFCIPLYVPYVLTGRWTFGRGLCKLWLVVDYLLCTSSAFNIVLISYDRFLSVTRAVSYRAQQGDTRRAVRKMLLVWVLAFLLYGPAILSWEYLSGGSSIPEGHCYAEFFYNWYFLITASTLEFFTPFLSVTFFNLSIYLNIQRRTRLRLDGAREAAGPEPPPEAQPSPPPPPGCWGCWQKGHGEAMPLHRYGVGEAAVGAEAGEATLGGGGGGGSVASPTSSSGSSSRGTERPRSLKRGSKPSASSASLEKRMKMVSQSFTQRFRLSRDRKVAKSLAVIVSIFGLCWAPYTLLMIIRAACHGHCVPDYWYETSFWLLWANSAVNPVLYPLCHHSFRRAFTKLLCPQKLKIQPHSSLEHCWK
# measurement_protocol: CRE-SPAP gene transcription in forskolin-stimulated CHO-H3-SPAP cells
# settings: Log KD values, CRE-SPAP; agonist S-α-methylhistamine
Quick reminder: number only, in nM, skip the unit.

In the examples that follow, each entry is paired with its recorded Kd.
molecule | result_unit | Kd
CN(C)CCC(c1ccc(Cl)cc1)c1ccccn1 (stereo not shown) [chlorpheniramine] | nM | 3630
Br.Br.c1nc(CCCC2CCNCC2)c[nH]1 [VUF 5681] | nM | 17.8
Cc1ccc(/C(=C\CN2CCCC2)c2ccccn2)cc1 [triprolidine] | nM | 3390

# input molecule: CC(C1=C(CCN(C)C)Cc2ccccc21)c1ccccn1 (stereo not shown) [dimethindine, dimethindene] ; wanted: its Kd
2140

----------
# assayed_target: human histamine H3 receptor (Homo sapiens)
# measurement_protocol: 3H-cAMP accumulation in forskolin-stimulated CHO-H3-SPAP cells
# Format: cell-based
# Parameters: secondarily transfected with the full length human histamine H3 receptor; host or cells: CHO-K1 cells with CRE-SPAP reporter (clonal line CHO-H3-SPAP)
measured_parameter: IC50 (nM)
Report only the number, with the unit nM understood.

compound | assayed_target | IC50 [nM]
N=C(N)SCCc1cnc[nH]1 | human histamine H3 receptor (Homo sapiens) | 0.123
c1cc(Cc2cnc[nH]2)ccn1 | human histamine H3 receptor (Homo sapiens) | 0.174

Query: IC50; subject: c1nc(CC2CCNCC2)c[nH]1 [immepip]
0.0501
